Test system: H. pylori reference strain J99
ASSAY OVERVIEW: MIC and MBC by microdilution against H. pylori reference strain J99
Format: cell-based, Helicobacter pylori
DETAILS: Helicobacter pylori; H. pylori J99, 48 h, 2-fold dilutions 20 to 0.625 µM
Attribute: MIC
MEASURED PROPERTY: MIC (µM)

MOLECULE	MEASURED PROPERTY	VALUE OBSERVED
CCC1CN(C)C2Cc3c([nH]c4ccccc34)C(=NN=Cc3ccccc3O)CC1C2C(=O)OC (centres unmarked)	MIC	20
CCC1CN(C)C2Cc3c([nH]c4ccccc34)C(=NN=CC=Cc3ccccc3)CC1C2C(=O)OC (centres unmarked) [Compound 3, Dregamine(phenylallylidene)hydrazone]	MIC	20
CCC1CN(C)C2Cc3c([nH]c4ccccc34)C(=NN=Cc3c[nH]c4ccccc34)CC1C2C(=O)OC (centres unmarked) [Compound 4, Dregamine(indolylmethylene)hydrazone]	MIC	10
CCC1CN(C)C2Cc3c([nH]c4ccccc34)C(c3c(OC)ccc4c5c([nH]c34)C3(C(=O)OC)CC4CC(CC)C3N(CC5)C4CC(C)=O)CC1C2C(=O)OC (centres unmarked) [Compound 7, Tabernaelegantinine A]	MIC	20
CCC1CN(C)C2Cc3c([nH]c4ccccc34)C(=NN=Cc3c[nH]c4cc(Br)ccc34)CC1C2C(=O)OC (centres unmarked)	MIC	10

====

ASSAY OVERVIEW: MTT cytotoxicity assay on VERO cells
Type: cell-based
DETAILS: African green monkey, MTT, 80 to 10 µM
Attribute: CC50 at 48 h

COMPOUND	UNIT TEXT	OP	CC50 at 48 h
CCC1CN(C)C2Cc3c([nH]c4ccccc34)C(=NN=Cc3c[nH]c4ccccc34)CC1C2C(=O)OC (centres unmarked) [Compound 4, Dregamine(indolylmethylene)hydrazone]	µM	=	47
CCC1CN(C)C2Cc3c([nH]c4ccccc34)C(c3c(OC)ccc4c5c([nH]c34)C3(C(=O)OC)CC4CC(CC)C3N(CC5)C4CC(C)=O)CC1C2C(=O)OC (centres unmarked) [Compound 7, Tabernaelegantinine A]	µM	>	80
CCC1CN(C)C2Cc3c([nH]c4ccccc34)C(=NN=Cc3c[nH]c4cc(Br)ccc34)CC1C2C(=O)OC (centres unmarked)	µM	>	80
CCC1CN(C)C2Cc3c([nH]c4ccccc34)C(=NN=Cc3ccccc3O)CC1C2C(=O)OC (centres unmarked)	µM	=	55.8
CCC1CN(C)C2Cc3c([nH]c4ccccc34)C(=NN=CC=Cc3ccccc3)CC1C2C(=O)OC (centres unmarked) [Compound 3, Dregamine(phenylallylidene)hydrazone]	µM	=	44.1

The reported numbers originate from paper PMC12386351.
